These entries and their values trace back to patent US20250346602A1.

- MEASUREMENT TARGET: IL-17A/A (Homo sapiens)
- Sequence (Q16552 24-155): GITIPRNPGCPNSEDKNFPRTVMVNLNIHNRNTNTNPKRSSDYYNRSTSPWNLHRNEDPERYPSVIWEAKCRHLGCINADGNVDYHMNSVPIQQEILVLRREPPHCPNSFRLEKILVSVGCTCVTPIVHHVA
- PROCEDURE TEXT: IL-17A/A HEK-Blue cell assay
- CONDITION DETAILS: HEK-Blue IL-17A reporter cell line (HEK 293), IL-17A/A stimulation, 20 hours incubation, SEAP read at A630
pIC50: −log10 of the molar value.
// pIC50 lookup, one value per entry
MEASUREMENT KIND: pIC50

COMPOUND	MEASUREMENT KIND	RESULT
C[C@H]1CC[C@H]([C@H](NC(=O)c2conc2C2CC2)c2cn3nc(CC4C[C@@H](C(F)(F)F)CNC4=O)ccc3n2)CC1 (stereo partly drawn) [Compound 161]	pIC50	> 7.00
CCn1nccc1C(=O)NC(c1cn2nc(CC3C(=O)NCC4CC43)ccc2n1)C1CCC(C)CC1 (single isomer, unassigned) [Compound 48]	pIC50	6.00 to 7.00
CCn1nccc1C(=O)N[C@H](c1cn2nc(CC3C[C@@H](C(F)(F)F)CNC3=O)ccc2n1)[C@@H]1CCCC(F)(F)C1 (stereo partly drawn) [Compound 194]	pIC50	< 6.00
CCn1nccc1C(=O)NC(c1cn2nc(CC3C[C@@H](C(F)(F)F)CNC3=O)ccc2n1)C1CCC2CC2CC1 (single isomer, unassigned) [Compound 174]	pIC50	< 6.00
CCn1nccc1C(=O)N[C@H](c1cn2nc(CC3C(=O)NCC3C(F)(F)F)ccc2n1)C(C1CC1)C1CC1 (single isomer, unassigned) [Compound 46]	pIC50	< 6.00
O=C(N[C@H](c1cn2nc(CC3C[C@@H](C(F)(F)F)CNC3=O)ccc2n1)C1CCC(F)(F)CC1)c1conc1CCF (stereo partly drawn) [Compound 110]	pIC50	6.00 to 7.00

###

// pIC50 lookup, one value per entry
- MEASUREMENT TARGET: IL-17A/A (Homo sapiens, UniProt Q16552)
- Construct: purchased Genscript Z03228
- Sequence (Q16552 24-155): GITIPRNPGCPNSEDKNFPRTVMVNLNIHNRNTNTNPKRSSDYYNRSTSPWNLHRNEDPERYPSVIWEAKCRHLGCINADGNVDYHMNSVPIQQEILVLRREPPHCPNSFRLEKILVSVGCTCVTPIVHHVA
- PROCEDURE TEXT: IL-17A/A HEK-Blue cell assay
- Type: cell-based
- CONDITION DETAILS: HEK-Blue IL-17A reporter cell line (HEK 293), IL-17A/A stimulation, 20 hours incubation, SEAP read at A630
- Procedure: The HEK-Blue IL-17A reporter cell line (Fisher #NC1408637) was used for cell-based IL-17A/A inhibition assays. Cells were grown and prepared for assays according to the manufacturer's instructions. […] Media from the cells is then added to a development reagent (Quanti-Blue Substrate, Fisher #NC9711613), and read at A630. […]
pIC50: −log10 of the molar value.

COMPOUND	pIC50
CCn1nccc1C(=O)N[C@H](c1cn2nc(C(C)C3C[C@@H](C(F)(F)F)CNC3=O)ccc2n1)C(C1CC1)C1CC1 (single isomer, unassigned) [Compound 55]	6.00 to 7.00
CCn1nccc1C(=O)N[C@H](c1cn2ncc(CC3C[C@H](C(F)(F)F)CNC3=O)cc2n1)C(C1CC1)C1CC1 (single isomer, unassigned)	< 6.00
O=C(N[C@H](c1cn2nc(CC3C[C@H](C(F)(F)F)CNC3=O)ccc2n1)[C@@H]1CCCC(F)(F)C1)c1conc1C1CC1 (some centres unmarked)	6.00 to 7.00
CCN(C)c1cc2nc([C@@H](NC(=O)c3ccnn3CC)C3CCC(F)(F)CC3)cn2nc1CC1C[C@@H](C(F)(F)F)CNC1=O (single isomer, unassigned) [Compound 89]	> 7.00
O=C(N[C@H](c1cn2nc(CC3C[C@@H](C(F)(F)F)CNC3=O)ccc2n1)C1CCC(F)(F)CC1)c1nonc1C1CC1 (some centres unmarked)	> 7.00
CCn1nccc1C(=O)N[C@H](c1cn2nc(CC3CC(F)(F)CNC3=O)ccc2n1)C(C1CC1)C1CC1 (single isomer, unassigned) [Compound 28]	6.00 to 7.00
CCn1nccc1C(=O)N[C@H](c1cn2nc(CC3C[C@@H](C(F)(F)F)CNC3=O)c(N(C)CC(F)(F)F)cc2n1)C1CCC(F)(F)CC1 (single isomer, unassigned) [Compound 182]	6.00 to 7.00
CCCn1nccc1C(=O)N[C@H](c1cn2nc(CC3C[C@@H](C(F)(F)F)CNC3=O)ccc2n1)C1CCC(F)(F)CC1 (some centres unmarked)	6.00 to 7.00
O=C(N[C@H](c1cn2ncc(CC3C[C@@H](C(F)(F)F)NC3=O)cc2n1)C1CCC(F)(F)CC1)c1conc1C1CC1 (single isomer, unassigned)	> 7.00
CCn1nccc1C(=O)N[C@H](c1cn2nc(CC3C[C@@H](C(F)(F)F)CNC3=O)c(N(C)C3CC3)cc2n1)C1CCC(F)(F)CC1 (single isomer, unassigned) [Compound 90]	6.00 to 7.00
CCn1nccc1C(=O)N[C@H](c1cn2ncc(CC3C[C@@H](C(F)(F)F)NC3=O)cc2n1)C1CCCCCC1 (mixture of isomers)	> 7.00

###

// pIC50 lookup, one value per entry
- MEASUREMENT TARGET: IL-17A/A (Homo sapiens)
- PROCEDURE TEXT: IL-17A/A HEK-Blue cell assay
- CONDITION DETAILS: HEK-Blue IL-17A reporter cell line (HEK 293), IL-17A/A stimulation, 20 hours incubation, SEAP read at A630
pIC50: −log10 of the molar value.
MEASUREMENT KIND: pIC50

MOLECULE	MEASUREMENT TARGET	MEASUREMENT KIND	RESULT
CCn1nccc1C(=O)N[C@H](c1cn2nc(CC3C[C@@H](C(F)(F)F)CNC3=O)ccc2n1)C1CC2(CCC2)C1 (single isomer, unassigned) [Compound 190]	IL-17A/A (Homo sapiens)	pIC50	< 6.00
CCn1nccc1C(=O)N[C@H](c1cn2nc(CC3C[C@H](C(F)(F)F)CNC3=O)ccc2n1)C(C1CC1)C1CC1 (stereo partly drawn) [Compound 153]	IL-17A/A (Homo sapiens)	pIC50	6.00 to 7.00
CCn1nccc1C(=O)N[C@@H](c1cn2nc(CC3C[C@@H](C(F)(F)F)CNC3=O)ccc2n1)[C@@H]1C[C@H]2C[C@H]2C1 (stereo partly drawn) [Compound 171]	IL-17A/A (Homo sapiens)	pIC50	6.00 to 7.00
CCn1nccc1C(=O)N[C@H](c1cn2nc(CC3C[C@@H](C(F)(F)F)CNC3=O)c(COC)cc2n1)C1CCC(F)(F)CC1 (stereo partly drawn) [Compound 84]	IL-17A/A (Homo sapiens)	pIC50	6.00 to 7.00
Cn1nc(C(F)F)cc1C(=O)N[C@H](c1cn2nc(CC3C[C@@H](C(F)(F)F)CNC3=O)ccc2n1)C1CCC(F)(F)CC1 (stereo partly drawn) [Compound 129]	IL-17A/A (Homo sapiens)	pIC50	< 6.00
CCn1nccc1C(=O)N[C@H](c1cn2nc(CC3C[C@@H](C(F)(F)F)CNC3=O)ccc2n1)C(C1CC1)C1CC1 (stereo partly drawn) [Compound 96]	IL-17A/A (Homo sapiens)	pIC50	6.00 to 7.00

###

// IC50 lookup, one value per entry
- MEASUREMENT TARGET: IL-17A/A (Homo sapiens)
- PROCEDURE TEXT: IL-17A/A HEK-Blue cell assay
- CONDITION DETAILS: HEK-Blue IL-17A reporter cell line (HEK 293), IL-17A/A stimulation, 20 hours incubation, SEAP read at A630
- Method: The HEK-Blue IL-17A reporter cell line (Fisher #NC1408637) was used for cell-based IL-17A/A inhibition assays. Cells were grown and prepared for assays according to the manufacturer's instructions. […] Media from the cells is then added to a development reagent (Quanti-Blue Substrate, Fisher #NC9711613), and read at A630. […]

COMPOUND	MEASUREMENT TARGET	IC50
CC(C)c1nocc1C(=O)N[C@H](c1cn2nc(CC3C[C@@H](C(F)(F)F)CNC3=O)ccc2n1)C1CCC(F)(F)CC1 (stereo partly drawn)	IL-17A/A (Homo sapiens)	< 100 nM
CCn1nccc1C(=O)N[C@H](c1cn2nc(CC3C[C@@H](C(F)(F)F)CNC3=O)ccc2n1)C1CCCCCC1 (stereo partly drawn)	IL-17A/A (Homo sapiens)	100 to 1000 nM
CCn1nccc1C(=O)N[C@H](c1cn2nc(CC3CC(F)(F)CNC3=O)c(NC)cc2n1)C1CCC(F)(F)CC1 (single isomer, unassigned) [Compound 73]	IL-17A/A (Homo sapiens)	100 to 1000 nM
CCn1nccc1C(=O)N[C@H](c1cn2nc(CC3C[C@H](C(F)(F)F)NC3=O)ccc2n1)C1CCC(F)(F)CC1 (single isomer, unassigned)	IL-17A/A (Homo sapiens)	> 1000 nM
CCn1nccc1C(=O)N[C@H](c1cn2nc(CC3CC(C(F)(F)F)CNC3=O)ccc2n1)C1CCCCCC1 (stereo partly drawn) [Compound 3]	IL-17A/A (Homo sapiens)	< 100 nM
CCn1nccc1C(=O)N[C@H](c1cn2nc(C(COC)C3C[C@@H](C(F)(F)F)CNC3=O)ccc2n1)C(C1CC1)C1CC1 (single isomer, unassigned)	IL-17A/A (Homo sapiens)	100 to 1000 nM
Cc1nonc1C(=O)N[C@H](c1cn2nc(C[C@H]3CCCNC3=O)ccc2n1)C1CCC(F)(F)CC1	IL-17A/A (Homo sapiens)	> 1000 nM
CCn1nccc1C(=O)NC(c1cn2ncc(CC3CC(F)(F)CNC3=O)cc2n1)C1CCC(C)CC1 (single isomer, unassigned) [Compound 210]	IL-17A/A (Homo sapiens)	> 1000 nM
CCn1nccc1C(=O)N[C@H](c1cn2nc(CC3C[C@@H](C(F)(F)F)CNC3=O)c(C(C)(C)O)cc2n1)C1CCC(F)(F)CC1 (stereo partly drawn)	IL-17A/A (Homo sapiens)	< 100 nM
CC[C@@H](c1ccc(F)cc1)[C@H](NC(=O)c1ccnn1CC)c1cn2ncc(CC3C[C@@H](C(F)(F)F)NC3=O)cc2n1 (single isomer, unassigned) [Compound 217]	IL-17A/A (Homo sapiens)	> 1000 nM
CCn1nccc1C(=O)N[C@H](c1cn2nc(CC3C[C@@H](C(F)(F)F)CNC3=O)c(N(C)C)cc2n1)C1CCC(F)(F)CC1 (single isomer, unassigned)	IL-17A/A (Homo sapiens)	100 to 1000 nM
CCn1nccc1C(=O)N[C@H](c1cn2nc(CC3C[C@H](C(F)(F)F)CNC3=O)ccc2n1)C1CCC(F)(F)CC1 (stereo partly drawn)	IL-17A/A (Homo sapiens)	100 to 1000 nM
CCn1nccc1C(=O)N[C@H](c1cn2nc(CC3C[C@@H](C(F)(F)F)CNC3=O)c(C)cc2n1)C1CCC(F)(F)CC1 (single isomer, unassigned) [Compound 83]	IL-17A/A (Homo sapiens)	100 to 1000 nM
CCn1nccc1C(=O)N[C@H](c1cn2nc(CC3C[C@@H](C(F)(F)F)CNC3=O)c(S(C)(=O)=O)cc2n1)C1CCC(F)(F)CC1 (stereo partly drawn)	IL-17A/A (Homo sapiens)	100 to 1000 nM
CCn1nccc1C(=O)NC(c1cn2nc(CC3CC(F)(F)CNC3=O)ccc2n1)C1CCC(C)CC1 (single isomer, unassigned) [Compound 26]	IL-17A/A (Homo sapiens)	100 to 1000 nM
CCn1nccc1C(=O)NC(c1cn2ncc(CC3CC(F)(F)CNC3=O)cc2n1)C1CCC(C)CC1 (single isomer, unassigned) [Compound 211]	IL-17A/A (Homo sapiens)	100 to 1000 nM
CC[C@@H](c1ccc(F)cc1)[C@H](NC(=O)c1ccnn1CC)c1cn2nc(CC3C[C@@H](C(F)(F)F)CNC3=O)ccc2n1 (stereo partly drawn)	IL-17A/A (Homo sapiens)	< 100 nM
CCn1nccc1C(=O)N[C@H](c1cn2nc(CC3CC(C(C)(F)F)NC3=O)ccc2n1)C1CCC(F)(F)CC1 (single isomer, unassigned) [Compound 69]	IL-17A/A (Homo sapiens)	100 to 1000 nM
CCn1nccc1C(=O)N[C@H](c1cn2nc(CC3CCCNC3=O)ccc2n1)C1CCCCCC1 (single isomer, unassigned) [Compound 12]	IL-17A/A (Homo sapiens)	< 100 nM
CCn1nccc1C(=O)N[C@H](c1cn2nc(CC3(C)C[C@@H](C(F)(F)F)CNC3=O)ccc2n1)[C@H]1CC[C@H](C)CC1 (single isomer, unassigned)	IL-17A/A (Homo sapiens)	100 to 1000 nM
O=C(N[C@H](c1cn2nc(CC3C[C@@H](C(F)(F)F)CNC3=O)ccc2n1)C1CCC(F)(F)CC1)c1ccnn1CCF (stereo partly drawn)	IL-17A/A (Homo sapiens)	100 to 1000 nM
Cc1nonc1C(=O)N[C@H](c1cn2nc(C[C@H]3C[C@@H](C(F)(F)F)NC3=O)ccc2n1)C1CCC(F)(F)CC1	IL-17A/A (Homo sapiens)	> 1000 nM
CC(C)c1nonc1C(=O)N[C@H](c1cn2nc(CC3C[C@@H](C(F)(F)F)CNC3=O)ccc2n1)[C@H]1CCCC(F)(F)C1 (stereo partly drawn)	IL-17A/A (Homo sapiens)	< 100 nM
CCc1nonc1C(=O)N[C@H](c1cn2nc(CC3C[C@@H](C(F)(F)F)CNC3=O)ccc2n1)C1CCC(F)(F)CC1 (stereo partly drawn)	IL-17A/A (Homo sapiens)	100 to 1000 nM
